target: human glypican-3 (GPC3) (human, UniProt P51654 25-554); assay: cell-based or functional assay; also: test concentration or dose not given here
observable: JHH-5 Internalization (MFI)
One number for each entry, in MFI.

Check out these entries, answers already filled in.
[in] Entry under review: H18L6_LC_G34R mAb, v40206 (antibody, human IgG1, kappa, V domains shown, Full-size IgG1/kappa) VH: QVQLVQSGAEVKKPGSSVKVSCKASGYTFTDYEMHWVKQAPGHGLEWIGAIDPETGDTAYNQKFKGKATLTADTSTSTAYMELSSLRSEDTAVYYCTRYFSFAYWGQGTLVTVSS VL: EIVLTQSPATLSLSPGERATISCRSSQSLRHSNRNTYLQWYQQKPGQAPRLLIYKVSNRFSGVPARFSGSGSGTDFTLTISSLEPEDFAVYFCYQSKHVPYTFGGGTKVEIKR . Reported JHH-5 Internalization (MFI)?
[out] 10700

[in] Record request: JHH-5 Internalization (MFI) value, item H18L6_LC_G34Q mAb, v40208 (antibody, human IgG1, kappa, V domains shown, Full-size IgG1/kappa) VH: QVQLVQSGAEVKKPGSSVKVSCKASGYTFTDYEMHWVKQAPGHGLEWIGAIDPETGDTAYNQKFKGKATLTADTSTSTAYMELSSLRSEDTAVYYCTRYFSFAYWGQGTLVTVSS VL: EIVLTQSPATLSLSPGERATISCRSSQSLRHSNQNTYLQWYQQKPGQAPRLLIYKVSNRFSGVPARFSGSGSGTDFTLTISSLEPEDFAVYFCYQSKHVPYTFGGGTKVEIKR
[out] 9510

[in] Recorded JHH-5 Internalization (MFI) of H18L6_LC_G34D mAb, v40203 (antibody, human IgG1, kappa, V domains shown) VH: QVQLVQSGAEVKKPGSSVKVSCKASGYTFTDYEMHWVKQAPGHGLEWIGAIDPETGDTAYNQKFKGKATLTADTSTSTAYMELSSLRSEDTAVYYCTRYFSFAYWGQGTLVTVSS VL: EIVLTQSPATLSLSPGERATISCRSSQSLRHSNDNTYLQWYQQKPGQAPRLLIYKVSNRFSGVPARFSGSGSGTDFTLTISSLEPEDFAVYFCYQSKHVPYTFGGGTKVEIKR , please.
[out] 6770

***
[in] Entry H18L6_LC_G34K mAb, v40207 (antibody, human IgG1, kappa, V domains shown, Full-size IgG1/kappa) VH: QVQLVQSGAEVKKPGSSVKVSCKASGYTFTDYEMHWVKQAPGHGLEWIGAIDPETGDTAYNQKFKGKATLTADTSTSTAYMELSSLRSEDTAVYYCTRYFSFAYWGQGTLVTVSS VL: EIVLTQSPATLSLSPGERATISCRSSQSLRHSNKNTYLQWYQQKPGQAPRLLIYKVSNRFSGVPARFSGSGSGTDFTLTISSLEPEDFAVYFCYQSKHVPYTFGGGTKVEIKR has what JHH-5 Internalization (MFI)?
[out] 10000
